B1: HDV Ribozyme (parent)
chain: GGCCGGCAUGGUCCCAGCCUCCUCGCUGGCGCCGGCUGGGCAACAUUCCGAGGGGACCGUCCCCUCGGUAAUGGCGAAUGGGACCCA

# Variants of: B1
# protocol-description: self-cleavage, relative activity (ratio to wild type); higher = more cleavage; co-transcriptional
Labels assigned by self-cleavage range: class 0 (below 0.1), class 1 (0.1 to below 0.6), class 2 (0.6 or more)

Some entries whose results are on file:
[
  {
    "mutation-key": "C7A U47C",
    "discrete-label": "class 1"
  },
  {
    "mutation-key": "A56C G67C",
    "discrete-label": "class 2"
  },
  {
    "mutation-key": "G2U G31U",
    "discrete-label": "class 0"
  },
  {
    "mutation-key": "G6U G50C",
    "discrete-label": "class 2"
  },
  {
    "mutation-key": "U47C A56C",
    "discrete-label": "class 2"
  },
  {
    "mutation-key": "U20C C36A",
    "discrete-label": "class 0"
  }
]

Ask: Which class holds C19G G59U ?
Result: class 0

Ask: Then C22G G59U ?
Result: class 0

Ask: Then C4A G25C ?
Result: class 1
